- target_desc: Mu-type opioid receptor (Cavia porcellus)
- protocol_text: Displacement of [3H]DAMGO from mu opioid receptor in guinea pig brain membranes at 1 uM after 120 mins by scintillation counting analysis relative to control
- Assay type: cell membranes
# inhibition listing for each entry below

| compound | target_desc | inhibition / % |
| --- | --- | --- |
| c1ccc(CN[C@H]2CC[C@]3(CC2)OCCc2ccccc23)cc1 | Mu-type opioid receptor (Cavia porcellus) | 0 |
| COC1O[C@]2(CC[C@@H](N(C)CC3CCCCC3)CC2)c2ccccc21 (stereo partly specified) | Mu-type opioid receptor (Cavia porcellus) | 16 |
| CN(CC1CCCCC1)[C@H]1CC[C@]2(CC1)OCCc1ccccc12 | Mu-type opioid receptor (Cavia porcellus) | 13 |
| COC1Cc2ccccc2[C@]2(CC[C@H](N(C)Cc3ccccc3)CC2)O1 (stereo partly specified) | Mu-type opioid receptor (Cavia porcellus) | 12 |
| C1=Cc2ccccc2[C@]2(CC[C@H](NCC3CCCCC3)CC2)O1 | Mu-type opioid receptor (Cavia porcellus) | 15 |
| COC1Cc2ccccc2[C@]2(CC[C@H](NCc3ccccc3)CC2)O1 (stereo partly specified) | Mu-type opioid receptor (Cavia porcellus) | 20 |

====

- target_desc: CYP2D6 (Homo sapiens, UniProt P10635)
- Sequence (P10635 whole entry): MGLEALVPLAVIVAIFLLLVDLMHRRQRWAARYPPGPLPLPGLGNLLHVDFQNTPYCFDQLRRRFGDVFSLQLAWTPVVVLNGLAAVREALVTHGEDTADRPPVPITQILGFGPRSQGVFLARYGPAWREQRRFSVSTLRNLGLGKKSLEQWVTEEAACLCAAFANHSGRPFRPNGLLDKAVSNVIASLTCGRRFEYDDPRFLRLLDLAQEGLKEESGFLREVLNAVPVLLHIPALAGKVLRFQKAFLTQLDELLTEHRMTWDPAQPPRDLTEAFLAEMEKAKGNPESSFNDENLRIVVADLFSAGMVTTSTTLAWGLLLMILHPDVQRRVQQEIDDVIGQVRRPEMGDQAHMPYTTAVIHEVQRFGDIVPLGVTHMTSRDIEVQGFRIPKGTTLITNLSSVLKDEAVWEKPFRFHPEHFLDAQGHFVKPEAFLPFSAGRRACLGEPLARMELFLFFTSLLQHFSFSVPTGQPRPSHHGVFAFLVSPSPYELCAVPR
- protocol_text: Inhibition of recombinant human CYP2D6 at 1 uM by fluorescence assay relative to control
- Type: ADME
# inhibition at 1 µM listing for each entry below

| compound | target_desc | inhibition at 1 µM |
| --- | --- | --- |
| COC1Cc2ccccc2[C@]2(CC[C@@H](N(C)CC3CCCCC3)CC2)O1 (some centres undefined) | CYP2D6 (Homo sapiens, UniProt P10635) | > 90% |
| COC1Cc2ccccc2[C@]2(CC[C@@H](N(C)Cc3ccccc3)CC2)O1 (some centres undefined) | CYP2D6 (Homo sapiens, UniProt P10635) | > 90% |
| COC1Cc2ccccc2[C@]2(CC[C@H](N(C)CC3CCCCC3)CC2)O1 (some centres undefined) | CYP2D6 (Homo sapiens, UniProt P10635) | > 90% |
| COC1Cc2ccccc2[C@]2(CC[C@H](N(C)Cc3ccccc3)CC2)O1 (some centres undefined) | CYP2D6 (Homo sapiens, UniProt P10635) | > 90% |

====

- target_desc: Kappa-type opioid receptor (Cavia porcellus)
- protocol_text: Displacement of [3H]U69,593 from kappa opioid receptor in guinea pig brain membrane at 1 uM after 120 mins by scintillation counting analysis relative to control
- Assay type: cell membranes
# inhibition listing for each entry below

| compound | inhibition |
| --- | --- |
| c1ccc2c(c1)CCO[C@]21CC[C@@H](NCC2CCCCC2)CC1 | 16% |
| COC1O[C@]2(CC[C@@H](NCC3CCCCC3)CC2)c2ccccc21 (some centres not stated) | 23% |
| CN(CC1CCCCC1)[C@H]1CC[C@@]2(CC1)OCCc1ccccc12 | 23% |
| c1ccc(CN[C@H]2CC[C@]3(CC2)OCCc2ccccc23)cc1 | 0% |
| COC1Cc2ccccc2[C@]2(CC[C@H](N(C)CC3CCCCC3)CC2)O1 (some centres not stated) | 0% |
| CN(CC1CCCCC1)[C@H]1CC[C@]2(CC1)OCCc1ccccc12 | 10% |
| CCOC1Cc2ccccc2[C@]2(CC[C@@H](N(C)CC3CCCCC3)CC2)O1 (some centres not stated) | 24% |
| COC1Cc2ccccc2[C@]2(CC[C@H](NCc3ccccc3)CC2)O1 (some centres not stated) | 27% |
| COC1O[C@]2(CC[C@@H](N(C)CC3CCCCC3)CC2)c2ccccc21 (some centres not stated) | 0% |
| COC1Cc2ccccc2[C@]2(CC[C@H](NCC3CCCCC3)CC2)O1 (some centres not stated) | 28% |
| CCOC1Cc2ccccc2[C@]2(CC[C@H](N(C)CC3CCCCC3)CC2)O1 (some centres not stated) | 18% |
| C1=Cc2ccccc2[C@]2(CC[C@H](NCC3CCCCC3)CC2)O1 | 18% |
